Assay read-out pIC50; system under study: CYP2E1 (Homo sapiens, UniProt P05181).
pIC50: −log10 of the molar value. Counter-ions that a name gives are not always drawn.

# compound, pIC50
data = [
    ("CC[C@H]1[C@@H](O)[C@@H]2[C@H](CC[C@]3(C)[C@@H]([C@H](C)CCC(=O)O)CC[C@@H]23)[C@@]2(C)CC[C@@H](O)C[C@@H]12", "< 5.00"),
    ("CC[C@H]1[C@@H](O)[C@@H]2[C@H](CC[C@]3(C)[C@@H]([C@H](C)CCOS(=O)(=O)O)CC[C@@H]23)[C@@]2(C)CC[C@@H](O)C[C@@H]12 [Compound B, sodium salt]", "< 5.00"),
    ("CC[C@H]1[C@@H](O)[C@@H]2[C@H]([C@@H](O)C[C@]3(C)[C@@H]([C@H](C)CCC(=O)O)CC[C@@H]23)[C@@]2(C)CC[C@@H](O)C[C@@H]12", "< 5.00"),
]

====

Listed next: entries and their corresponding pIC50.
assay-target: CYP3A4 (Homo sapiens, UniProt P08684)
experimental-details: CYP450 inhibition, recombinant baculosomes, fluorescent signal
condition-info: read-out: CYP3A4 (Green Substrate) IC50
pIC50: −log10 of the molar value. Where a name gives a salt, the structure may show the parent alone.

# compound, pIC50
data = [
    ("CC[C@H]1[C@@H](O)[C@@H]2[C@H](CC[C@]3(C)[C@@H]([C@H](C)CCC(=O)O)CC[C@@H]23)[C@@]2(C)CC[C@@H](O)C[C@@H]12", "< 5.00"),
    ("CC[C@H]1[C@@H](O)[C@@H]2[C@H]([C@@H](O)C[C@]3(C)[C@@H]([C@H](C)CCC(=O)O)CC[C@@H]23)[C@@]2(C)CC[C@@H](O)C[C@@H]12", "< 5.00"),
    ("CC[C@H]1[C@@H](O)[C@@H]2[C@H](CC[C@]3(C)[C@@H]([C@H](C)CCOS(=O)(=O)O)CC[C@@H]23)[C@@]2(C)CC[C@@H](O)C[C@@H]12 [Compound B, sodium salt]", "< 5.00"),
]

====

pIC50: −log10 of the molar value. Where a name gives a salt, the structure may show the parent alone.
A short record of pIC50 observed with CYP2C19 (Homo sapiens, UniProt P33261) follows.
Sequence (P33261 whole entry): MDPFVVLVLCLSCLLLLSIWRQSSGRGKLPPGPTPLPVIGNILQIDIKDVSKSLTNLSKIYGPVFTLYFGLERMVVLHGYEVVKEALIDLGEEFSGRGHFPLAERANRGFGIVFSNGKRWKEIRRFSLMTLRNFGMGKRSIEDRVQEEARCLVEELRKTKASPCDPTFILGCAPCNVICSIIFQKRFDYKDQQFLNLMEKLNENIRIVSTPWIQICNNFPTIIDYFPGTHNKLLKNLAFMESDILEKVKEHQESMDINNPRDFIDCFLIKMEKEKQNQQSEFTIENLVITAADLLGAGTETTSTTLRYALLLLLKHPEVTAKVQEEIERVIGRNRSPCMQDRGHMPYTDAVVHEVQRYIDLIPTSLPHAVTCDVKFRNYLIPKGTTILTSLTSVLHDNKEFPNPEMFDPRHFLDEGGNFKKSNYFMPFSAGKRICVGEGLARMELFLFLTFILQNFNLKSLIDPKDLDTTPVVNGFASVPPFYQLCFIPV
reported-endpoint: pIC50

# compound, assay-value
data = [
    ("CC[C@H]1[C@@H](O)[C@@H]2[C@H](CC[C@]3(C)[C@@H]([C@H](C)CCOS(=O)(=O)O)CC[C@@H]23)[C@@]2(C)CC[C@@H](O)C[C@@H]12 [Compound B, sodium salt]", "< 5.00"),
    ("CC[C@H]1[C@@H](O)[C@@H]2[C@H](CC[C@]3(C)[C@@H]([C@H](C)CCC(=O)O)CC[C@@H]23)[C@@]2(C)CC[C@@H](O)C[C@@H]12 [Compound A]", "< 5.00"),
    ("CC[C@H]1[C@@H](O)[C@@H]2[C@H]([C@@H](O)C[C@]3(C)[C@@H]([C@H](C)CCC(=O)O)CC[C@@H]23)[C@@]2(C)CC[C@@H](O)C[C@@H]12 [Compound 100]", "< 5.00"),
]

====

experimental-details: Water solubility
Reported solubility values follow for various molecules

# molecule, solubility [µM]
measured = [
    ("CC[C@H]1[C@@H](O)C2C3C[C@H](O)[C@H]([C@H](C)CCC(=O)O)[C@@]3(C)CCC2[C@@]2(C)CC[C@@H](O)C[C@@H]12 (stereo partly shown) [Compound E]", 120),
    ("CC[C@H]1[C@@H](O)C2C3CC[C@H]([C@H](C)C[C@H](C)C(=O)O)[C@@]3(C)CCC2[C@@]2(C)CC[C@@H](O)C[C@@H]12 (stereo partly shown) [Compound D]", 15),
]

====

experimental-details: physchem
condition-info: water

# smiles-input, solubility / µM
rows = [
    ("CC[C@H]1[C@@H](O)[C@@H]2[C@H](CC[C@]3(C)[C@@H]([C@H](C)CCC(=O)O)CC[C@@H]23)[C@@]2(C)CC[C@@H](O)C[C@@H]12", 9),
]

====

Examples of molecules with documented CMC(b) (mM) Critical Micellar Concentration follow.
experimental-details: Critical micellar concentration
Assay type: physicochemical
condition-info: […] NaCl water solution
reported-endpoint: CMC(b) (mM) Critical Micellar Concentration

# molecule, assay-value
measured = [
    ("C[C@H](CCC(=O)NCCS(=O)(=O)O)[C@H]1CC[C@H]2[C@@H]3[C@H](O)C[C@@H]4C[C@H](O)CC[C@]4(C)[C@H]3CC[C@]12C", 3.0),
    ("CC[C@H]1[C@@H](O)C2C3CCC(C(C)CC(C)C(=O)O)[C@@]3(C)[C@@H](O)CC2[C@@]2(C)CC[C@@H](O)C[C@@H]12 (stereo in doubt)", 2),
    ("CC[C@H]1[C@@H](O)C2C3C[C@H](O)[C@H]([C@H](C)CCC(=O)O)[C@@]3(C)CCC2[C@@]2(C)CC[C@@H](O)C[C@@H]12 (stereo partly shown)", 5.9),
    ("CC[C@H]1[C@@H](O)[C@@H]2[C@H](CC[C@]3(C)[C@@H]([C@H](C)CCC(=O)O)CC[C@@H]23)[C@@]2(C)CC[C@@H](O)C[C@@H]12", 2.9),
    ("C[C@H](CCC(=O)NCCS(=O)(=O)O)[C@H]1CC[C@H]2[C@@H]3[C@@H](O)C[C@@H]4C[C@H](O)CC[C@]4(C)[C@H]3CC[C@]12C", 2.2),
    ("C[C@H](CCC(=O)O)[C@H]1CC[C@H]2[C@@H]3[C@H](O)C[C@@H]4C[C@H](O)CC[C@]4(C)[C@H]3CC[C@]12C", 3.2),
]

====

assay-target: CYP1A2 (Homo sapiens, UniProt P05177)
Sequence (P05177 1-516): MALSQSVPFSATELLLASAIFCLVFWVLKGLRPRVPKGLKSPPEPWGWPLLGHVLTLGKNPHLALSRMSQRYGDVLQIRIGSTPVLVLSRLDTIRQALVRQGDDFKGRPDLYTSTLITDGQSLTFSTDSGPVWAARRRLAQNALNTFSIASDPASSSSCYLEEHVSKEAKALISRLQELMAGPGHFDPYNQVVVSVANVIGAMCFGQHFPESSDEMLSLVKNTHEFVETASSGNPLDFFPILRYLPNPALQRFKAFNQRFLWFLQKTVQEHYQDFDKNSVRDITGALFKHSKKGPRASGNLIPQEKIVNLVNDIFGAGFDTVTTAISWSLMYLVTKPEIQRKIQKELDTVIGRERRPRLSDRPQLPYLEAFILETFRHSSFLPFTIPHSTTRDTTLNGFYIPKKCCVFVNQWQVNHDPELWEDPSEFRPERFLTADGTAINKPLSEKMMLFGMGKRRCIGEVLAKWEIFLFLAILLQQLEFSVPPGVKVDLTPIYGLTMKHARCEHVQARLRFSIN
Structures can show the parent of a compound that is named as a salt.
Reported IC50 by item:

# compound, IC50
measured = [
    ("CC[C@H]1[C@@H](O)[C@@H]2[C@H]([C@@H](O)C[C@]3(C)[C@@H]([C@H](C)CCC(=O)O)CC[C@@H]23)[C@@]2(C)CC[C@@H](O)C[C@@H]12", "> 10 µM"),
    ("CC[C@H]1[C@@H](O)[C@@H]2[C@H](CC[C@]3(C)[C@@H]([C@H](C)CCOS(=O)(=O)O)CC[C@@H]23)[C@@]2(C)CC[C@@H](O)C[C@@H]12 [Compound B, sodium salt]", "> 10 µM"),
    ("CC[C@H]1[C@@H](O)[C@@H]2[C@H](CC[C@]3(C)[C@@H]([C@H](C)CCC(=O)O)CC[C@@H]23)[C@@]2(C)CC[C@@H](O)C[C@@H]12", "> 10 µM"),
]
